target: Opioid receptors; mu & delta (Homo sapiens) (UniProt P41143+P35372); assay: Selectivity ratio of binding affinity towards delta opioid receptor to that of mu opioid receptor; format: protein assay
Sequence (P35372 whole entry, looked up): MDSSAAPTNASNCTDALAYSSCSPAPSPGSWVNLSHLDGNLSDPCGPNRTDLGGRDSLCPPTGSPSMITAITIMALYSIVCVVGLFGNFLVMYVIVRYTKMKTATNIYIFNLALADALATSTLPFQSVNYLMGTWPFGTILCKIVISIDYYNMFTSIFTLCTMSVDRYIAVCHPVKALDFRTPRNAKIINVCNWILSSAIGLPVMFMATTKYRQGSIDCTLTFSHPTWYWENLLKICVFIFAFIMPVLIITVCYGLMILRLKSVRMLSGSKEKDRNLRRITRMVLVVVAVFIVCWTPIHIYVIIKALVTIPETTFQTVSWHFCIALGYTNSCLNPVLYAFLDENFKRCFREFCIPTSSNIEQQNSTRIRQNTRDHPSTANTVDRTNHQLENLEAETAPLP
Sequence (P41143 whole entry, looked up): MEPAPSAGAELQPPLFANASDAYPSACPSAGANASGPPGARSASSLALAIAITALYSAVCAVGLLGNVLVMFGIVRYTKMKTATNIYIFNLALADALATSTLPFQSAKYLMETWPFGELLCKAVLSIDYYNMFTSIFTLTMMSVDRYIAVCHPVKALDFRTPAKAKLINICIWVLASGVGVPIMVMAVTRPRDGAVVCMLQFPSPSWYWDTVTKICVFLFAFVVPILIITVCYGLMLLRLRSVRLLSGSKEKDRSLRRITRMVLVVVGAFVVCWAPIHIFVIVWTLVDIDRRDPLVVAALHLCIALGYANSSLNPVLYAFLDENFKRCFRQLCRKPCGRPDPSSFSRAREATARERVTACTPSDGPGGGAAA
Could you please report measured Ratio for the items listed next?
Answers are plain numbers.

Some solved cases for reference:
Molecule	Assay system	Ratio
C[C@H](c1ccccc1)[C@H](NC(=O)CNC(=O)[C@@H](C)NC(=O)[C@@H](N)Cc1ccc(O)cc1)C(=O)NNC(=O)[C@@H](NC(=O)CNC(=O)[C@@H](C)NC(=O)[C@@H](N)Cc1ccc(O)cc1)[C@H](C)c1ccccc1 (stereo in doubt)	Opioid receptors; mu & delta (Homo sapiens) (UniProt P41143+P35372)	0.012
C[C@@H](NC(=O)[C@@H](N)Cc1ccc(O)cc1)C(=O)NCC(=O)N[C@@H](Cc1cccc2ccccc12)C(=O)NNC(=O)[C@H](Cc1cccc2ccccc12)NC(=O)CNC(=O)[C@@H](C)NC(=O)[C@@H](N)Cc1ccc(O)cc1	Opioid receptors; mu & delta (Homo sapiens) (UniProt P41143+P35372)	0.12
C[C@@H](NC(=O)[C@@H](N)Cc1ccc(O)cc1)C(=O)NCC(=O)N[C@@H](Cc1ccc2ccccc2c1)C(=O)NNC(=O)[C@H](Cc1ccc2ccccc2c1)NC(=O)CNC(=O)[C@@H](C)NC(=O)[C@@H](N)Cc1ccc(O)cc1	Opioid receptors; mu & delta (Homo sapiens) (UniProt P41143+P35372)	0.23

Look up Ratio for the entries below, preserving their order.
1. CC(NC(=O)[C@@H](N)Cc1ccc(O)cc1)C(=O)NCC(=O)N[C@H](C(=O)NNC(=O)[C@@H](NC(=O)CNC(=O)C(C)NC(=O)[C@@H](N)Cc1ccc(O)cc1)[C@@H](C)c1ccccc1)[C@@H](C)c1ccccc1 (single isomer, unassigned)
2. C[C@@H](NC(=O)[C@@H](N)Cc1ccc(O)cc1)C(=O)NCC(=O)N[C@@H](Cc1c(F)c(F)c(F)c(F)c1F)C(=O)NNC(=O)[C@H](Cc1c(F)c(F)c(F)c(F)c1F)NC(=O)CNC(=O)[C@@H](C)NC(=O)[C@@H](N)Cc1ccc(O)cc1

Ans.
1: 0.27; 2: 0.12
